target desc: Muscarinic acetylcholine receptor M1 (Rattus norvegicus)
method summary: qHTS Assay for Antagonists of Acetylcholine Muscarinic M1 Receptor: Kinetic Measurement of Intracellular Calcium Response (AID 943);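 note: Fluo-4 calcium signal as peak divided by basal fluorescence over 4 min; nearly all actives have a fitted effect of over 75% in size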
assay context: M1-expressing cells, kinetic intracellular calcium fluorescence; series mostly up to 35.3 µM
Records with an inconclusive call do not appear. Activity calls are given as the source filed them. Calls come from the whole dose curve; as a rule, active = well fitted inhibition curve with a large enough effect; inconclusive = small, poorly fitted or top-dose-only effect; inactive = no such curve, though single readings can be large or run the other way.
Give your call using only these classes: active, inactive

molecule	target desc	class assignment
CSC(=N)N	Muscarinic acetylcholine receptor M1 (Rattus norvegicus)	inactive

GET /call?item= C=CC[C@H](N)C(=O)O returns the recorded outcome of this test.
inactive

// same read-out, input: CNC(=O)c1cc2c(cn1)[nH]c1ccccc12
inactive

Subsequent entry: Oc1ccc(Cn2cc[nH]c2=S)cc1
inactive

Can you handle N[C@@H](Cc1ccc(O)c(I)c1)C(=O)O next?
inactive

Consider next the compound NS(=O)(=O)c1cccc2c1c([N+](=O)[O-])cc1nc(O)c(O)nc12 in the same way.
inactive

Follow-up entry: N#C/C(=C\c1ccc(O)c(O)c1)C(=O)NCCc1ccccc1
inactive

====

method summary: qHTS for differential inhibitors of proliferation of Plasmodium falciparum line HB3 (AID 1886);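 note: parasites grown with compound for 72 h before SYBR Green readout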
assay context: Plasmodium falciparum HB3 proliferation inhibition; series mostly up to 28.7 µM
Inconclusive results are not listed. Activity calls are given as the source filed them. The call rests on the fitted dose curve; in most records, active means well fitted curve in the direction sought with a large enough effect; inconclusive means small, poorly fitted or top-dose-only effect, or another doubt; inactive means no such curve, though single readings can be large or run the other way.
Respond with a class label; see TRUE = active, FALSE = inactive

Solved cases (8 shown):
molecule	class assignment
O=C1Cc2c([nH]c3ccc(Br)cc23)-c2ccccc2N1	TRUE
CC[N+](CC)(CC)CC(=O)Nc1c(C)cccc1C	FALSE
NC1(C(=O)O)CCCCC1	FALSE
CC(=O)NCCc1c[nH]c2ccc(O)cc12	FALSE
CC1CCN=C(N)S1 (stereo unspecified)	FALSE
CC(C)NC[C@H](O)COc1ccc(CC(N)=O)cc1	FALSE
NC(=Nc1ccccc1)NC(=O)c1nc(Cl)c(N)nc1N	TRUE
N=C(N)c1ccc(OCCCCCOc2ccc(C(=N)N)cc2)cc1 (tested in a mixture with another compound)	TRUE

Assay result, entry Clc1nccc2c1ccc1ccccc12 — outcome?
FALSE

Same again, this time with CC(C)C[C@H](NC(=O)[C@H](O)[C@H](N)Cc1ccccc1)C(=O)O
FALSE

Same question for CC(C)(C)NCC(O)COc1cccc2[nH]c(=O)[nH]c12 (stereo unspecified) please.
FALSE

Now this one: NCCCCN
FALSE

Cool, now CC[C@@H]1Cc2cc(O)ccc2C2=C1c1ccc(O)cc1C[C@H]2CC
TRUE

And COc1ccc2c(c1)c(CC(=O)O)c(C)n2C(=O)c1ccccc1 ?
FALSE

OC[C@H]1NC[C@@H](O)[C@@H]1O ?
FALSE

One more molecule: COc1cc(CC(=O)O)ccc1O
FALSE

Moving on to the next molecule: CN1CCCC1CCOC(C)(c1ccccc1)c1ccc(Cl)cc1 (stereo unspecified)
TRUE

Now this one: N#C/C(=C\c1ccc(O)c(O)c1)C(=O)NCCc1ccccc1
TRUE

Continue with COc1cc(CNC(=O)CCCCCCC(C)C)ccc1O
FALSE

Next molecule up: Cc1cccc(C)c1OCC(N)C(C)C (stereo unspecified)
FALSE

What about this molecule? COC1(C2=NCCN2)COc2ccccc2O1 (stereo unspecified)
FALSE

Here is the next molecule: Cc1nc(N=Nc2ccc(S(=O)(=O)O)cc2S(=O)(=O)O)c(COP(=O)(O)O)c(C=O)c1O
FALSE

Next record, please: CC(C)C[C@H](NC(=O)C1OC1C(=O)O)C(=O)NCCCCN=C(N)N (stereo partly specified)
TRUE

Now give it for NCCS(=O)O too.
FALSE

Follow-up item: CN1CCN(c2nc3cc(C(F)(F)F)ccc3n3cccc23)CC1
TRUE

Another molecule to check: COc1cc(C(O)C(=O)O)ccc1O (stereo unspecified)
FALSE

====

target desc: Rap guanine nucleotide exchange factor 3 (Homo sapiens) (UniProt O95398)
Sequence (O95398 whole entry, looked up): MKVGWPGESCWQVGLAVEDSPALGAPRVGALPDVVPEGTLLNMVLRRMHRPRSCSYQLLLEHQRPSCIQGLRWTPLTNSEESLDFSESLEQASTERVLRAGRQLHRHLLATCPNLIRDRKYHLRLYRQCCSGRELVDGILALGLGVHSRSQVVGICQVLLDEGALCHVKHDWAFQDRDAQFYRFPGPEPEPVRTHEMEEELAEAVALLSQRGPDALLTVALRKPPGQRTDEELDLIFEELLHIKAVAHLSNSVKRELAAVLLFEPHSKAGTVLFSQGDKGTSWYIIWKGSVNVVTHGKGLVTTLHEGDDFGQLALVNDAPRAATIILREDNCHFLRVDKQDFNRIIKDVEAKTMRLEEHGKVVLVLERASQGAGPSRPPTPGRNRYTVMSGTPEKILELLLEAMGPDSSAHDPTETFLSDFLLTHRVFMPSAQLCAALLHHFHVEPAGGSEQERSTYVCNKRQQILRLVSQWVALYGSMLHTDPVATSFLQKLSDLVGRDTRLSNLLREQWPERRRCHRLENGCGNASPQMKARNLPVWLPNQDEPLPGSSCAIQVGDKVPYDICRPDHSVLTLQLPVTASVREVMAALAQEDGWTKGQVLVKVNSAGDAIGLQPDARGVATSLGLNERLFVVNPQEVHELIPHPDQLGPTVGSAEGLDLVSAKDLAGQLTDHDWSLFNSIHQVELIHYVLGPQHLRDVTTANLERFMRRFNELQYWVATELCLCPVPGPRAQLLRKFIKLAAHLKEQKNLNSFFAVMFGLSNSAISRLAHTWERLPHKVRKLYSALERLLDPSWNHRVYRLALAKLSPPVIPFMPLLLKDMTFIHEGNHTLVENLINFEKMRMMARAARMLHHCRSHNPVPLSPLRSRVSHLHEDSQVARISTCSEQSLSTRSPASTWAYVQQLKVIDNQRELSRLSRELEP
method summary: Confirmatory qHTS for agonist of cAMP-regulated guanine nucleotide exchange factor 3 (EPAC1) (AID 1645881); note: nearly all actives have a fitted effect of over 75% in size;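 for activation: EPAC1 catalysed release of BODIPY-GDP from Rap1B seen as fluorescence loss; 100% = effect of cAMP agonist control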
assay context: EPAC1 Rap1B BODIPY-GDP exchange fluorescence; series mostly up to 154 µM
Records with an inconclusive call do not appear. The source made the active and inactive calls. Calls come from the whole dose curve; as a rule, active = well fitted activation curve with a large enough effect; inconclusive = small, poorly fitted or top-dose-only effect; inactive = no such curve, though single readings can be large or run the other way.
Choose one outcome from this list and give only that: label 1 (active), label 0 (inactive)

Reference set, count: 5
compound	class assignment
CC(/C=C/c1cccc(Oc2ccc(F)cc2)c1)N(O)C(N)=O (stereo unspecified)	label 0
COc1ccc(CCn2nnnc2C2(c3ccc(C)cc3)CC2)cc1	label 0
CCCC(=O)NCCc1c2n(c3ccc(OC)cc13)CCCc1ccccc1-2	label 0
O=C1Nc2ccc(I)cc2/C1=C/c1cc(Br)c(O)c(Br)c1	label 0
CCCC[C@@]1(C2CCCC2)Cc2cc(OCC(=O)O)c(Cl)c(Cl)c2C1=O	label 0

Hey, what did the test say about Nc1ncnc2c1nc(Sc1ccc(Cl)cc1)n2[C@H]1OC2COP(=O)(O)O[C@@H]2C1O (stereo partly specified) ?
label 1

====

target desc: Cytochrome P450 2C19 (Homo sapiens) (UniProt P33261)
Sequence (P33261 whole entry, looked up): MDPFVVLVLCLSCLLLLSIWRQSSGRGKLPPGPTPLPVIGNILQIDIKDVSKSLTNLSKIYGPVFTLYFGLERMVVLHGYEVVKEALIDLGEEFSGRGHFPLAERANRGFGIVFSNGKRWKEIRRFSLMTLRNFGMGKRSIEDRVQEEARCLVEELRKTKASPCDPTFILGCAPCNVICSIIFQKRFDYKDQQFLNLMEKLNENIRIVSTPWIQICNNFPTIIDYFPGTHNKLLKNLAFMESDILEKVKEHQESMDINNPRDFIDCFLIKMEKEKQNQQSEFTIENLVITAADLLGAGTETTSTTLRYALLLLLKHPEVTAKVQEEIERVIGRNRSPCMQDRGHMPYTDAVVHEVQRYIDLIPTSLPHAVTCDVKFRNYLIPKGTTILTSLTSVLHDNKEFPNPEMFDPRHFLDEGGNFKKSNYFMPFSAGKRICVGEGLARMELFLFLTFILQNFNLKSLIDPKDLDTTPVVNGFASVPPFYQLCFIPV
method summary: qHTS Assay for Inhibitors and Substrates of Cytochrome P450 2C19 (AID 899); note: nearly all actives have a fitted effect of over 60% in size
assay context: recombinant CYP2C19, luciferin-H EGE luminescence; series mostly up to 57.1 µM
Records with an inconclusive call do not appear. The source made the active and inactive calls. Calls come from the whole dose curve; as a rule, active = well fitted inhibition curve with a large enough effect; inconclusive = small, poorly fitted or top-dose-only effect; inactive = no such curve, though single readings can be large or run the other way.
Choose one outcome from this list and give only that: True for active, False for inactive

Consider the worked cases shown below.
molecule	class assignment
O=c1onc2cnc3ccccc3n12	False
O=C(O)c1cccnc1C(=O)O	False
O=[N+]([O-])c1cccc2cn[nH]c12	False

# input for lookup
Outcome logged for O=C(N[C@@H](Cc1ccccc1)C(=O)CCl)OCc1ccccc1 in this assay:
True

====

target desc: Hexokinase-4 (Homo sapiens) + Glucokinase regulatory protein (Homo sapiens) (UniProt P35557+Q14397)
Sequence (P35557 whole entry, looked up): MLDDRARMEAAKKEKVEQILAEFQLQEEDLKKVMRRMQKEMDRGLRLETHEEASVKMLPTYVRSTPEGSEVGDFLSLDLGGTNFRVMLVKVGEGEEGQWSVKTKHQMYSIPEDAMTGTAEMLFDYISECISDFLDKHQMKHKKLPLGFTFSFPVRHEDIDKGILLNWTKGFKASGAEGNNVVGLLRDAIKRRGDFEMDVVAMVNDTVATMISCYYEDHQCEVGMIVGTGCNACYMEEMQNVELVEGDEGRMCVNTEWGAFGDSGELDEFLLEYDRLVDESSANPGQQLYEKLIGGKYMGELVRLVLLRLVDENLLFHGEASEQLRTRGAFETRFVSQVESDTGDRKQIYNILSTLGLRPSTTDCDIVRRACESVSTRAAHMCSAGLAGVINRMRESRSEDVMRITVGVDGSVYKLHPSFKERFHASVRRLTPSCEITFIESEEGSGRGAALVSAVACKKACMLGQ
Sequence (Q14397 whole entry, looked up): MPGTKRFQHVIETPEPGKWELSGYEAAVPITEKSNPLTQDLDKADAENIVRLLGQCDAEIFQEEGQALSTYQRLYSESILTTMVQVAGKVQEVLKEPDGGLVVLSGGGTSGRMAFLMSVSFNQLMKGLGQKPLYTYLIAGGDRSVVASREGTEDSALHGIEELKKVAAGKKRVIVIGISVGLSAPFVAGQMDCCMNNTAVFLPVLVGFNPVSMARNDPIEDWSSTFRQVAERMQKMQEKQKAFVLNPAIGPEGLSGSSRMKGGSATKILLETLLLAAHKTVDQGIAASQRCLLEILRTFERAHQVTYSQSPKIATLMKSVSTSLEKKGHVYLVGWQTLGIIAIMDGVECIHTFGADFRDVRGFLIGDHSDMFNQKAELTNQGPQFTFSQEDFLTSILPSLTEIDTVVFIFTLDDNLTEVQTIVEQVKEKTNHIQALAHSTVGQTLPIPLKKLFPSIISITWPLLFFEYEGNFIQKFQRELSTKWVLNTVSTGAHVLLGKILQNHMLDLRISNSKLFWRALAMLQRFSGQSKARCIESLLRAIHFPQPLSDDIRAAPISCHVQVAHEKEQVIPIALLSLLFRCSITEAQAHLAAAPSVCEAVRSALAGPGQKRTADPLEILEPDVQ
method summary: qHTS assay for inhibitors of recombinant human GCK-GKRP interaction: ADP-Glo assay (AID 743206)
assay context: ADP-Glo luminescence, 60 min; series mostly up to 76.9 µM
The source made the active and inactive calls. The call rests on the fitted dose curve; in most records, active means well fitted curve in the direction sought with a large enough effect; inconclusive means small, poorly fitted or top-dose-only effect, or another doubt; inactive means no such curve, though single readings can be large or run the other way.
Choose the fitting class; nothing outside y (active), n (inactive) is accepted.

compound	class assignment
NCCS(=O)O	n
Cn1cc(C(F)(F)F)nc1-c1ccc(OCC(O)CNCCOc2ccc(O)c(C(N)=O)c2)cc1 (stereo unspecified)	n
CC(N)(Cc1ccc(O)c(O)c1)C(=O)O (stereo unspecified)	n
O=C1NC(=O)c2cc(Nc3ccccc3)c(Nc3ccccc3)cc21	n
COC(=O)C(C)(N)Cc1ccc(O)cc1 (stereo unspecified)	n

Query: recorded result category for C=CC1(C)CC(=O)C2(O)C(C)(O1)C(OC(C)=O)C(O)C1C(C)(C)CCC(O)C12C (stereo unspecified) in this test
n

Now the same for NC(=O)c1cc[n+](CC2=C(C(=O)O)N3C(=O)[C@@H](NC(=O)[C@@H](c4ccccc4)S(=O)(=O)[O-])[C@H]3SC2)cc1
n

Record: NC/C=C\C(=O)O
n

Entry to check: O=C(O)C1=CC(=C(c2ccc(O)c(C(=O)O)c2)c2ccc(O)c(C(=O)O)c2)C=CC1=O
y

Also, CC(=O)C(C)=O please.
n

Then this compound: c1ccc2nc(C3=NCCN3)ccc2c1
n

====

method summary: qHTS for differential inhibitors of proliferation of Plasmodium falciparum line W2 (AID 1883);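 note: potency is the fitted concentration of half-maximal effect; parasites grown with compound for 72 h before lysis and staining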
assay context: Plasmodium falciparum W2 proliferation inhibition; series mostly up to 28.7 µM
Records with an inconclusive call do not appear. Activity calls are given as the source filed them. Calls come from the whole dose curve; as a rule, active = well fitted curve in the direction sought with a large enough effect; inconclusive = small, poorly fitted or top-dose-only effect, or another doubt; inactive = no such curve, though single readings can be large or run the other way.
Potency values for the molecules below.

Entry C=CCN1CCc2c(cc(O)c(O)c2Br)[C@@H](c2ccccc2)C1 : reported Potency = ?
3.98 µM (active)

Try CC(=O)O[C@H]1CC2(C)[C@@H](C[C@@H](O)[C@H]3[C@@]4(C)CC[C@@H](O)[C@@H](C)[C@@H]4CC[C@@]32C)C1=C(CCC=C(C)C)C(=O)O (some centres undefined) next.
10 µM (active)

# repeat for NC(=O)CNCCC(c1ccccc1)c1ccccc1
2.24 µM (active)

====

method summary: qHTS for differential inhibitors of proliferation of Plasmodium falciparum line HB3 (AID 1886);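 note: parasites grown with compound for 72 h before SYBR Green readout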; note: potency is the fitted concentration of half-maximal effect
assay context: Plasmodium falciparum HB3 proliferation inhibition; series mostly up to 28.7 µM
Results filed as inconclusive are left out. Activity calls are given as the source filed them. Calls come from the whole dose curve; as a rule, active = well fitted curve in the direction sought with a large enough effect; inconclusive = small, poorly fitted or top-dose-only effect, or another doubt; inactive = no such curve, though single readings can be large or run the other way.
readout: Potency

Examples with their reported Potency follow.
compound	readout	observed result
O=[N+]([O-])c1cccc2c(Br)[nH]nc12	Potency	inactive
NC(=O)CC[C@H](N)C(=O)O	Potency	inactive
CC(N)=NCCCC[C@@H](N)C(=O)O	Potency	inactive
COc1cccc(OC)c1OCCNCC1CSc2ccccc2O1 (stereo unspecified)	Potency	12.6 µM (active)
CC#CCOC(=O)c1c(C)nc2sc3c(c2c1N)CCC(O)C3 (stereo unspecified)	Potency	inactive

Record request: Potency value, item CC1=C(C(=O)O)N2C(=O)[C@@H](NC(=O)C(N)C3=CCC=CC3)[C@H]2SC1 (stereo partly specified)
inactive

Next compound up: C[C@H](NC(=O)/C(C#N)=C/c1ccc(O)c(O)c1)c1ccccc1
12.6 µM (active)

Now this one: C[C@@]1(C2CCCC2)Cc2cc(OCC(=O)O)c(Cl)c(Cl)c2C1=O
inactive
